system: Target C mRNA; assay: Splicing RT-qPCR gene panel, Target C canonical junction (CJ) mRNA; type: cell-based, human; conditions: Homo sapiens, Tables 4A/4B, read-out: Target C (IC50, decrease in CJ mRNA, gene panel)
pIC50: −log10 of the molar value.
Property: pIC50

>  <Compound>
CCNC1CCN(c2ccc(C(=O)Nc3cn4cc(C)nc4c(F)c3OC)c3nn(C)cc23)CC1

>  <Result>
5.00 to 6.00

$$$$
>  <Compound>
Cc1cn2cc(NC(=O)c3ccc(N4CCN5CCCC5C4)c4cc(C)oc34)cc(F)c2n1 (stereo not drawn)

>  <Result>
5.00 to 6.00

$$$$
>  <Compound>
Cc1cn2cc(NC(=O)c3ccc(C4CCN(C)CC4)c4cc(C)oc34)cc(F)c2n1

>  <Result>
< 5.00

$$$$

###

test system: Target C mRNA; assay: Splicing RT-qPCR gene panel, Target C canonical junction (CJ) mRNA; type: cell-based, human; settings: Homo sapiens, Tables 4A/4B, read-out: Target C (IC50, decrease in CJ mRNA, gene panel)
Property: IC50

>  <Compound>
CN[C@H]1CCN(c2ccc(C(=O)Nc3cn4cc(C)nc4c(OC)n3)c3nn(C)cc23)C1 [Compound 442]

>  <Property>
IC50

>  <Result>
> 10 µM

$$$$
>  <Compound>
Cc1cn2cc(NC(=O)c3ccc(N4CCNCC4)c4cn(CC(C)(C)O)nc34)cc(F)c2n1 [Compound 354]

>  <Property>
IC50

>  <Result>
> 10 µM

$$$$
>  <Compound>
Cc1cn2cc(NC(=O)c3ccc(N4CCNCC4)c4cn(CC5(O)CC5)nc34)cc(F)c2n1 [Compound 358]

>  <Property>
IC50

>  <Result>
> 10 µM

$$$$

###

Tested on: HTT mRNA
Test: Splicing RT-qPCR assay, HTT canonical (CJ) and alternative (AJ) junction mRNA
Type: cell-based, human
Conditions: Homo sapiens, A673 or K562 cells, 24 hours compound treatment, read-out: HTT AJ (AC50, increase in alternative junction mRNA)
Protocol: Compounds described herein were used to modulate RNA transcript abundance in cells. The expression of a target mRNA was measured by detecting the formation of an exon-exon junction in the canonical transcript (CJ). A compound mediated exon-inclusion event was detected by observing an increase in formation of a new junction with an alternative exon (AJ). Real-time qPCR assays were used to detect these splicing switches and interrogate the potency of various compounds towards different target genes. […]
Examples of molecules with documented AC50 follow.
Property: AC50

>  <Molecule>
Cc1cc2c(N3CCNCC3)ccc(C(=O)Nc3ccc4cn(C)nc4c3)c2o1 [Compound 261]

>  <Measured Target>
HTT mRNA

>  <Result>
> 10 µM

$$$$
>  <Molecule>
Cc1cn2cc(NC(=O)c3ccc(N4CCN(C)C(C)C4)c4cc(C)oc34)cc(F)c2n1 (stereo not drawn) [Compound 191]

>  <Measured Target>
HTT mRNA

>  <Result>
1 to 10 µM

$$$$
>  <Molecule>
Cc1cn2cc(NC(=O)c3ccc(N4CCN[C@H](C5CC5)C4)c4cn(C)nc34)cc(F)c2n1 [Compound 607]

>  <Measured Target>
HTT mRNA

>  <Result>
1 to 10 µM

$$$$
>  <Molecule>
Cc1cn2cc(NC(=O)c3ccc(N4CCNCC4)c4cn(C5COC5)nc34)cc(F)c2n1 [Compound 295]

>  <Measured Target>
HTT mRNA

>  <Result>
1 to 10 µM

$$$$
>  <Molecule>
CCn1cc2c(N3CC[C@H](N(C)C)C3)ccc(C(=O)Nc3cc(F)c4nc(C)cn4c3)c2n1 [Compound 408]

>  <Measured Target>
HTT mRNA

>  <Result>
> 10 µM

$$$$
>  <Molecule>
CCn1cc2c(N3CCNCC3)ccc(C(=O)Nc3cc(F)c4nc(CO)oc4c3)c2n1 [Compound 582]

>  <Measured Target>
HTT mRNA

>  <Result>
0.1 to 1 µM

$$$$
